Tested on: green peach aphid (Myzus persicae)
Method Notes: Myzus persicae test (spray treatment of infested cabbage leaves)
Format: in vivo
Experimental Conditions: Myzus persicae, 24 h; 0.032 g/ha, after 1 d; read-out: Kill in % after 1d
Endpoint Label: pest or weed control at 0.032 g/ha (%)
Just the number please, in %, no unit attached.

Prompt line: Fill in: pest or weed control at 0.032 g/ha of CC1(C)C(/C=C(\Cl)C(F)(F)F)C1C(=O)OC(C#N)c1cccc(Oc2ccccc2)c1 (stereo not shown) is ___
Response line: 0

Prompt line: Another molecule to check: CC1(C)C(C=C(Cl)Cl)C1C(=O)OC(C#N)c1ccc(F)c(Oc2ccccc2)c1 (stereo not shown)
Response line: 0

Prompt line: Another molecule to check: CC1(C)[C@H](C(=O)O[C@H](C#N)c2cccc(Oc3ccccc3)c2)[C@@H]1C=C(Br)Br
Response line: 70

Prompt line: Another molecule to check: CC1(C)[C@H](/C=C(\Cl)C(F)(F)F)[C@@H]1C(=O)O[C@H](C#N)c1cccc(Oc2ccccc2)c1
Response line: 0
